Reference for the values: patent US6362369B1

- Tested on: diamondback moth (Plutella xylostella)
- TEST_NAME: Insecticidal effect on diamondback moth (Test Example 1)
- Format: in vivo
- ASSAY_CONDITIONS: diamondback moth; judged by the criterion of Test Example 1
- Method: Insecticidal effect on diamondback moth (Plutella xylostella) Adult diamondback moths were released and allowed to oviposit on a Chinese cabbage seedling. […] After air-drying, it was allowed to stand in a room thermostated at 25° C. Six days after the immersion, the hatched insects were counted. The mortality was calculated according to the following equation and the insecticidal effect was judged according to the criterion shown below. The test was carried out with triplicate groups of 10 insects. […]
RESULT_TYPE: Insecticidal effect (Test Example 1), judged from mortality

INPUT_SMILES: CCc1cc(C(F)(F)C(F)(F)F)ccc1NC(=O)c1cccc(Cl)c1C(=O)NC(C)(C)C
VALUE_MEASURED: A (100)

INPUT_SMILES: CCCN(CC)C(=O)c1c(F)cccc1C(=O)Nc1ccc(C(F)(F)C(F)(F)F)cc1C
VALUE_MEASURED: A (100)

INPUT_SMILES: Cc1cc(C(F)(F)C(F)(F)F)ccc1NC(=O)c1c(Cl)cccc1C(=O)NCc1ccccc1F
VALUE_MEASURED: A (100)

INPUT_SMILES: CCCN(CC)C(=O)c1c(I)cccc1C(=O)Nc1ccc(OC(F)F)cc1C
VALUE_MEASURED: A (100)

====

- Tested on: rice leafroller (Cnaphalocrocis medinalis)
- TEST_NAME: Insecticidal effect on rice leafroller (Test Example 3)
- Format: in vivo
- ASSAY_CONDITIONS: 500 ppm; rice lamina immersed; third-instar larvae of rice leafroller; four days after inoculation; 25° C., humidity 70%

COMPOUND: CC(C)NC(=O)c1cccc(Cl)c1C(=O)Nc1ccc(OC(F)F)cc1 [compound 200]
Insecticidal effect, Test Example 3: A (100)
--
COMPOUND: CC(C)NC(=O)c1c(Cl)cccc1C(=O)Nc1ccc(C(F)(F)C(F)(F)C(F)(F)C(F)(F)F)cc1 [compound 91]
Insecticidal effect, Test Example 3: A (100)

====

- System: diamondback moth (Plutella xylostella)
- TEST_NAME: Insecticidal effect on diamondback moth (Test Example 1)
- Type: in vivo
- ASSAY_CONDITIONS: diamondback moth; mortality judged by criterion of Test Example 1

INPUT_SMILES: Cc1cc(C(F)(F)C(F)(F)F)ccc1NC(=O)c1cccc(I)c1C(=O)NC1CCCCC1
Insecticidal effect, Test Example 1: A (100)
--
INPUT_SMILES: Cc1cc(C(F)(F)C(F)(F)F)ccc1NC(=O)c1c(C)cccc1C(=O)NC(C)C
Insecticidal effect, Test Example 1: A (100)
--
INPUT_SMILES: Cc1cc(OC(F)(F)C(F)(F)c2ccccc2)ccc1NC(=O)c1ccccc1C(=O)NC(C)C
Insecticidal effect, Test Example 1: A (100)
--
INPUT_SMILES: CCN(CC)C(=O)c1cccc(I)c1C(=O)Nc1ccc(C(F)(F)C(F)(F)F)cc1C
Insecticidal effect, Test Example 1: A (100)

====

- Tested on: diamondback moth (Plutella xylostella)
- TEST_NAME: Insecticidal effect on diamondback moth (Test Example 1)
- Assay type: in vivo
- ASSAY_CONDITIONS: diamondback moth; mortality judged by criterion of Test Example 1
- Description: Insecticidal effect on diamondback moth (Plutella xylostella) Adult diamondback moths were released and allowed to oviposit on a Chinese cabbage seedling. […] After air-drying, it was allowed to stand in a room thermostated at 25° C. Six days after the immersion, the hatched insects were counted. The mortality was calculated according to the following equation and the insecticidal effect was judged according to the criterion shown below. The test was carried out with triplicate groups of 10 insects. […]

MOLECULE: Cc1cc(Cl)ccc1NC(=O)c1cccc(I)c1C(=O)NC(C)(C)C [compound 941]
Insecticidal effect, Test Example 1: A (100)
--
MOLECULE: Cc1cc(C(F)(F)C(F)(F)F)ccc1NC(=O)c1c(Cl)cccc1C(=O)NC1CCCO1 (centres unmarked) [compound 1393]
Insecticidal effect, Test Example 1: A (100)
--
MOLECULE: CC(C)(C)NC(=O)c1c(I)cccc1C(=O)Nc1ccc2c(c1)OC(F)C(F)(F)O2 (centres unmarked) [compound 1150]
Insecticidal effect, Test Example 1: A (100)
--
MOLECULE: Cc1cc(OC(F)(F)C(F)(F)c2ccccc2)ccc1NC(=O)c1cccc([N+](=O)[O-])c1C(=O)NC(C)C [compound 1089]
Insecticidal effect, Test Example 1: A (100)
--
MOLECULE: CC(C)(C)NC(=O)c1c(I)cccc1C(=O)Nc1ccc(C(F)(F)F)cc1 [compound 939]
Insecticidal effect, Test Example 1: A (100)
--
MOLECULE: Cc1cc(C(F)(C(F)(F)F)C(F)(F)F)ccc1NC(=O)c1ccc(Cl)c(Cl)c1C(=O)NC(C)C [compound 1223]
Insecticidal effect, Test Example 1: A (100)
--
MOLECULE: CC(C)(C)NC(=O)c1c(I)cccc1C(=O)Nc1ccc(SC(F)(F)F)cc1 [compound 1127]
Insecticidal effect, Test Example 1: A (100)
--
MOLECULE: CCC(CO)NC(=O)c1cccc(Cl)c1C(=O)Nc1ccc(C(F)(F)C(F)(F)F)cc1C (centres unmarked) [compound 1441]
Insecticidal effect, Test Example 1: A (100)

====

- Tested on: rice leafroller (Cnaphalocrocis medinalis)
- TEST_NAME: Insecticidal effect on rice leafroller (Test Example 3)
- Assay type: in vivo
- ASSAY_CONDITIONS: 500 ppm, rice lamina dip, third-instar larvae, four days after inoculation, 25° C., humidity 70%
RESULT_TYPE: Insecticidal effect on rice leafroller (Test Example 3), judged grade

COMPOUND: Cc1cc(OC(F)F)ccc1NC(=O)c1cccc(C(F)(F)F)c1C(=O)NC(C)C
VALUE_MEASURED: D (79-50)
--
COMPOUND: CCc1ccccc1NC(=O)c1cccc([N+](=O)[O-])c1C(=O)NC(C)C
VALUE_MEASURED: A (100)
--
COMPOUND: CC(C)NC(=O)c1c(Cl)cccc1C(=O)Nc1ccc(C=C(Cl)Cl)cc1
VALUE_MEASURED: A (100)
--
COMPOUND: Cc1cc(OC(F)(F)C(F)(F)Br)ccc1NC(=O)c1c(F)cccc1C(=O)NC(C)C
VALUE_MEASURED: A (100)
--
COMPOUND: CC(C)NC(=O)c1c(F)cccc1C(=O)Nc1ccc2c(c1)OCO2
VALUE_MEASURED: A (100)
--
COMPOUND: CC(C)NC(=O)c1c(F)cccc1C(=O)Nc1ccc(C(F)(F)F)cc1Cl
VALUE_MEASURED: A (100)
--
COMPOUND: Cc1cc(I)ccc1NC(=O)c1c(F)cccc1C(=O)NC(C)C
VALUE_MEASURED: D (79-50)
--
COMPOUND: Cc1cc(Cl)ccc1NC(=O)c1c(OC(F)F)cccc1C(=O)NC(C)C
VALUE_MEASURED: D (79-50)
--
COMPOUND: Cc1cc(Cl)ccc1NC(=O)c1cccc(F)c1C(=O)NC(C)C
VALUE_MEASURED: A (100)
--
COMPOUND: Cc1cc(SC(F)(F)C(F)(F)F)ccc1NC(=O)c1c(F)cccc1C(=O)NC(C)C
VALUE_MEASURED: A (100)
--
COMPOUND: Cc1c(F)cccc1NC(=O)c1cccc([N+](=O)[O-])c1C(=O)NC(C)C
VALUE_MEASURED: A (100)
--
COMPOUND: CC(C)NC(=O)c1c(F)cccc1C(=O)Nc1ccc(OC(F)(F)F)cc1
VALUE_MEASURED: D (79-50)
--
COMPOUND: Cc1ccc(Cl)cc1NC(=O)c1ccc2ccccc2c1C(=O)NC(C)C
VALUE_MEASURED: A (100)
--
COMPOUND: Cc1cc(NC(=O)c2cccc([N+](=O)[O-])c2C(=O)NC(C)C)ccc1Br
VALUE_MEASURED: D (79-50)
--
COMPOUND: COCC(C)NC(=O)c1c(C(=O)Nc2ccc(OC(F)F)cc2C)cccc1[N+](=O)[O-] (centres unmarked)
VALUE_MEASURED: A (100)
--
COMPOUND: CC(C)NC(=O)c1c(C(=O)Nc2ccc(F)c(Cl)c2)cccc1[N+](=O)[O-]
VALUE_MEASURED: A (100)
--
COMPOUND: Cc1c(F)cccc1NC(=O)c1c(F)cccc1C(=O)NC(C)C
VALUE_MEASURED: A (100)

====

- Test system: rice leafroller (Cnaphalocrocis medinalis)
- TEST_NAME: Insecticidal effect on rice leafroller (Test Example 3)
- Type: in vivo
- ASSAY_CONDITIONS: 500 ppm; rice lamina immersed; third-instar larvae of rice leafroller; four days after inoculation; 25° C., humidity 70%
RESULT_TYPE: Insecticidal effect, Test Example 3

COMPOUND: Cc1cc(OC(F)(F)C(F)Cl)ccc1NC(=O)c1ccccc1C(=O)NC(C)C (centres unmarked)
VALUE_MEASURED: A (100)
//
COMPOUND: Cc1cc(OC(F)F)ccc1NC(=O)c1cccc(Cl)c1C(=O)NC(C)C
VALUE_MEASURED: A (100)
//
COMPOUND: CC(C)NC(=O)c1c(Cl)cccc1C(=O)Nc1ccc(SC(F)(F)C(F)(F)Br)cc1
VALUE_MEASURED: A (100)
//
COMPOUND: CC(C)NC(=O)c1cccc(I)c1C(=O)Nc1ccc(OC(F)(F)F)cc1
VALUE_MEASURED: A (100)
//
COMPOUND: Cc1cc(OC(F)(F)C(F)F)ccc1NC(=O)c1c(Br)cccc1C(=O)NC(C)C
VALUE_MEASURED: A (100)
//
COMPOUND: CC(C)NC(=O)c1ccccc1C(=O)Nc1ccc(OC(F)F)cc1C(F)(F)F
VALUE_MEASURED: A (100)
//
COMPOUND: CC(C)NC(=O)c1c(Cl)cccc1C(=O)Nc1ccc(-c2ccccc2)cc1
VALUE_MEASURED: A (100)
//
COMPOUND: Cc1cc(OC(F)(F)C(F)C(F)(F)F)ccc1NC(=O)c1c(Cl)cccc1C(=O)NC(C)C (centres unmarked)
VALUE_MEASURED: A (100)
//
COMPOUND: CC(C)NC(=O)c1c(I)cccc1C(=O)Nc1ccc(OC(F)F)c(OC(F)F)c1
VALUE_MEASURED: A (100)
//
COMPOUND: CC(C)NC(=O)c1ccccc1C(=O)Nc1ccc(OC(F)(F)C(F)OC(F)(F)C(F)(F)C(F)(F)F)cc1 (centres unmarked)
VALUE_MEASURED: A (100)
//
COMPOUND: Cc1cc(I)ccc1NC(=O)c1c(Br)cccc1C(=O)NC(C)C
VALUE_MEASURED: A (100)
//
COMPOUND: Cc1cc(OCC(F)(F)C(F)F)ccc1NC(=O)c1cccc(Br)c1C(=O)NC(C)C
VALUE_MEASURED: A (100)
//
COMPOUND: CC(C)NC(=O)c1c(Cl)cccc1C(=O)Nc1ccc2c(c1)nc(C(F)(F)F)n2C
VALUE_MEASURED: A (100)
//
COMPOUND: Cc1cc(OC(F)(F)F)ccc1NC(=O)c1cccc(Br)c1C(=O)NC(C)C
VALUE_MEASURED: A (100)
//
COMPOUND: Cc1cc(Oc2ccc(C(F)(F)F)cn2)ccc1NC(=O)c1c(Cl)cccc1C(=O)NC(C)C
VALUE_MEASURED: A (100)
